target: human recombinant Cyp A (Homo sapiens); assay: biochemical
Sequence (P62937 whole entry): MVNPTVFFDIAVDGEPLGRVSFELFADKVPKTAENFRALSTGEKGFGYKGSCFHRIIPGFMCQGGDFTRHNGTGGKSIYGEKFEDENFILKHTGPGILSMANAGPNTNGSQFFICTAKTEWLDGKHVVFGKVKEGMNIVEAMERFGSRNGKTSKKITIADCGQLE
Square brackets hold non-standard residues; d marks the D form. Peptide text beside a SMILES is read from it. * marks the point of attachment. NMe(2-epi-Bmt) = C/C=C/C[C@@H](C)[C@@H](O)[C@@H](NC)C(=O)O; Ethyl(2-morpholino) = C1CN(CC*)CCO1; NMeL = CN[C@@H](CC(C)C)C(=O)O; dNMeL = CN[C@H](CC(C)C)C(=O)O; dNMeV = CN[C@@H](C(=O)O)C(C)C; dNMeC = CN[C@H](CS)C(=O)O; dAbu = CC[C@@H](N)C(=O)O; X2 = CCCCC*
Quick list: pKi per entry.
pKi is defined as minus the log10 of a concentration measured in mol/L.

Value (pKi, human recombinant Cyp A (Homo sapiens)) for record C/C=C/C[C@@H](C)[C@@H](O)[C@@H]1C(=O)N[C@H](CC)C(=O)N(C)[C@H](CSCCCCC)C(=O)N(C)[C@@H](CC(C)C)C(=O)N[C@H](C(C)C)C(=O)N(C)[C@H](CC(C)C)C(=O)N[C@H](C)C(=O)N[C@@H](C)C(=O)N(C)[C@H](CC(C)C)C(=O)N(C)[C@H](CC(C)C)C(=O)N(C)[C@H](C(C)C)C(=O)N1C [Example 5] (cyclo(A[dNMeL][dNMeL][dNMeV][NMe(2-epi-Bmt)][dAbu][dNMeC](X2)[NMeL][dV][dNMeL][dA])) = 8.64

Value (pKi, human recombinant Cyp A (Homo sapiens)) for record C/C=C/C[C@@H](C)[C@@H](O)[C@@H]1C(=O)N[C@H](CC)C(=O)N(C)[C@H](CSCCN2CCOCC2)C(=O)N(C)[C@@H](CC(C)C)C(=O)N[C@H](C(C)C)C(=O)N(C)[C@H](CC(C)C)C(=O)N[C@H](C)C(=O)N[C@@H](C)C(=O)N(C)[C@H](CC(C)C)C(=O)N(C)[C@H](CC(C)C)C(=O)N(C)[C@H](C(C)C)C(=O)N1C [Example 10] (cyclo(A[dNMeL][dNMeL][dNMeV][NMe(2-epi-Bmt)][dAbu][dNMeC](Ethyl(2-morpholino))[NMeL][dV][dNMeL][dA])) = 8.41

Value (pKi, human recombinant Cyp A (Homo sapiens)) for record C/C=C/C[C@@H](C)[C@@H](O)[C@@H]1C(=O)N[C@H](CC)C(=O)N(C)[C@H](CSC)C(=O)N(C)[C@@H](CC(C)C)C(=O)N[C@H](C(C)C)C(=O)N(C)[C@H](CC(C)C)C(=O)N[C@H](C)C(=O)N[C@@H](C)C(=O)N(C)[C@H](CC(C)C)C(=O)N(C)[C@H](CC(C)C)C(=O)N(C)[C@H](C(C)C)C(=O)N1C [Example 4] (cyclo(A[dNMeL][dNMeL][dNMeV][NMe(2-epi-Bmt)][dAbu][dNMeC](Me)[NMeL][dV][dNMeL][dA])) = 8.16
